Target: human Nav1.1 (Homo sapiens, UniProt P35498)
Construct: host or cells: HEK293
Test: Amplification of Nav1.1-derived voltage-gated sodium current (Nav1.1 current), automated patch clamp (Test 1)
Assay type: cell-based
Conditions: HEK293, Concentration for evaluation 1 μM; HEK293 cell line stably expressing human Nav1.1; read-out: Nav1.1 current amplification rate (%)
attribute_measured: activation at 1 µM (%)

O=C(Cn1ncc2ncc(N3CCC4(CC4)C(F)(F)C3)nc21)Nc1ccn2ncnc2c1    84
CC1CC=C(c2cnc3cnn(CC(=O)Nc4ccn5ncnc5c4)c3n2)CC1 (stereo not shown)    249
CN(c1cnc2cnn(CC(=O)Nc3ccc4ncncc4c3)c2n1)C1CC(C)(C)C1    61
CN(CC1CC1)c1cnc2cnn(CC(=O)Nc3ccc(C#N)nc3)c2n1    17
Cc1ccc(-c2cnc3cnn(CC(=O)N4CCN(c5cccnc5)CC4)c3n2)c(F)c1    32
N#Cc1cnc(NC(=O)Cn2ncc3ncc(N4CCC5(CC5)C(F)(F)C4)nc32)cn1    14
N#Cc1ccc(NC(=O)Cn2ncc3ncc(N4CCC5(CC5)C(F)(F)C4)nc32)nc1    10
O=C(Cn1ncc2ncc(N3CCC4(CC4)C(F)(F)C3)nc21)Nc1ccc(-n2ccnc2)nc1    73

(a) CC1CC=C(c2cnc3cnn(CC(=O)N4CCN(c5cccnc5)CC4)c3n2)CC1 (stereo not shown)
(b) CC1CC=C(c2cnc3cnn(CC(=O)Nc4ccc5ocnc5c4)c3n2)CC1 (stereo not shown)
Qu. Which has the higher activation at 1 µM, a or b ? Mark your selection by writing its label.
Ans. b
(b: 321%, a: 91%)

(I) Cc1cc(NC(=O)Cn2ncc3ncc(N4CCC5(CC5)C(F)(F)C4)nc32)cc2ncnn12
(II) CN(c1cnc2cnn(CC(=O)Nc3ccn4ncnc4c3)c2n1)C1CC2(CC2)C1
(III) Cc1ccc(-c2cnc3cnn(CC(=O)Nc4ccn5ncnc5c4)c3n2)c(F)c1
Qu. Please put the entries in order of rising activation at 1 µM. To answer, arrange all of the labels according to the requested order.
Ans. I, II, III

(a) CC(C)CN(C)c1cnc2cnn(CC(=O)Nc3ccn4ncnc4c3)c2n1
(b) N#Cc1ccc(NC(=O)Cn2ncc3ncc(N4CCC5(CC5)C(F)(F)C4)nc32)cn1
(c) Cc1cc(NC(=O)Cn2nc(C3=CCC(C)CC3)ccc2=O)cc(C)n1 (stereo not shown)
(d) O=C(Cn1ncc2ncc(N3CCC4(CCC4)CC3)nc21)N1CCN(c2cccnc2)CC1
(e) O=C(Cn1ncc2ncc(N3CCC4(CC4)C(F)(F)C3)nc21)Nc1ccn2ccnc2c1
Qu. Given 5 compounds, produce a descending ranking by activation at 1 µM. // list labels; follow requested order
Ans. e, b, a, c, d

(1) Cc1cnc(-c2cnc3cnn(CC(=O)Nc4ccn5ncnc5c4)c3n2)s1
(2) CC1CCN(c2cnc3cnn(CC(=O)Nc4ccn5ncnc5c4)c3n2)CC1
(3) CN(c1cnc2cnn(CC(=O)Nc3cnc4cccnc4c3)c2n1)C1CC2(CC2)C1
(4) CN(c1cnc2cnn(CC(=O)Nc3cnc4cccnc4c3)c2n1)C1CC(C)(C)C1
Qu. Order the records, beginning with the lowest activation at 1 µM and ending with the highest. I'd appreciate it if you listed the labels in the requested order.
Ans. 2, 1, 3, 4

(1) Cc1cc(NC(=O)Cn2ncc3ncc(N(C)CC4CC4)nc32)cc2ncnn12
(2) CN(CC1(C)CC1)c1cnc2cnn(CC(=O)Nc3cnc4cccnc4c3)c2n1
(3) CC1(C)CC=C(c2cnc3cnn(CC(=O)Nc4ccn5ccnc5c4)c3n2)CC1
Qu. List by increasing activation at 1 µM. Answer with the labels in sequence, matching the requested order.
Ans. 1, 2, 3

(P) CN(c1cnc2cnn(CC(=O)Nc3ccc(C#N)nc3)c2n1)C1CC2(CC2)C1
(Q) CN(c1cnc2cnn(CC(=O)Nc3ccc(C#N)nn3)c2n1)C1CC(C)(C)C1
Qu. In the pair P and Q , the larger recorded activation at 1 µM belongs to which? Respond with the label that goes with your answer.
Ans. P
(P: 106%, Q: 43%)

(a) CN(c1cnc2cnn(CC(=O)Nc3ccc(C#N)nc3)c2n1)C1CC(C)(C)C1
(b) CN(c1cnc2cnn(CC(=O)Nc3ccc4ncncc4c3)c2n1)C1CC2(CC2)C1
Qu. Lower value of activation at 1 µM belongs to which: a or b ? Mark your answer with the label of the selected entry.
Ans. b
(b: 57%, a: 104%)
